Target: UniProt:Q03181
Test: cell-based human PPAR-GAL4 chimera luciferase reporter assay in CV-1 cells
Conditions: PPAR LBD-GAL4 chimera, 24 hours treatment
I'd be grateful if you could share measured EC50 for these entries.

Short answer please: EC50, UniProt:Q03181, entry CCc1cnc(N(CCCOc2cccc3ccc(C(=O)O)nc23)Cc2ccc(C(F)(F)F)cc2C(F)(F)F)nc1
> 100 µM

# query: EC50 | item CCc1cnc(N(CCCOc2ccc3[nH]cc(CC(=O)O)c3c2)Cc2ccc(C(F)(F)F)cc2C(F)(F)F)nc1 | system: UniProt:Q03181
1 to 100 µM

Request: EC50, test system UniProt:Q03181, entry O=C(O)Cc1c[nH]c2ccc(OCCCN(Cc3ccc(C(F)(F)F)cc3C(F)(F)F)c3ccccn3)cc12
1 to 100 µM

Entry O=C(O)c1nc2ccccc2nc1OCCCN(Cc1ccc(C(F)(F)F)cc1C(F)(F)F)c1nc2ccccc2s1 , system UniProt:Q03181: what EC50 was measured?
> 100 µM

What EC50 appears in the records for this molecule with UniProt:Q03181? CCCCN(CCCOc1cccc(C(=O)O)n1)c1nc2ccccc2s1
> 100 µM

Please provide the recorded EC50 for CCCCN(CCCOc1nc2ccccc2nc1C(=O)O)c1nc2ccccc2s1 , tested on UniProt:Q03181.
> 100 µM

# value lookup — system UniProt:Q03181, readout EC50, item CCCCN(CCCOc1ccc2[nH]cc(CC(=O)O)c2c1)c1nc2ccccc2s1
1 to 100 µM

Observed EC50 on UniProt:Q03181 for O=C(O)c1cncc(OCCCN(Cc2ccc(C(F)(F)F)cc2)c2nc3ccccc3s2)c1 , please.
> 100 µM

What value of EC50 on UniProt:Q03181 does O=C(O)c1nc2ccccc2nc1OCCCN(Cc1ccc(C(F)(F)F)cc1C(F)(F)F)c1nc2ccccc2o1 have?
> 100 µM

---

Please respond with reported EC50 for every item in the list.
Molecular target: UniProtKB Q03181
Sequence (Q03181 211-439 limits assumed): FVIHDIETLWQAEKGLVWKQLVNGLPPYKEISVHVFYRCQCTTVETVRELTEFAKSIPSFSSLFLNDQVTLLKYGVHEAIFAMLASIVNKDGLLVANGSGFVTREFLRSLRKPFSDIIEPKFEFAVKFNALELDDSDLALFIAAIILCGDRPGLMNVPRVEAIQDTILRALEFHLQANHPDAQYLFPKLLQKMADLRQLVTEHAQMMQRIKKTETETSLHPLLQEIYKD
Assay: cell-based human PPAR-GAL4 chimera luciferase reporter assay in CV-1 cells
Conditions: PPAR LBD-GAL4 chimera, 24 hours treatment

Would you mind telling me what EC50 value was observed for CCc1cnc(N(CCCOc2nc3ccccc3nc2C(=O)O)Cc2ccc(C(F)(F)F)cc2C(F)(F)F)nc1 ?
> 100 µM

Entry O=C(O)Cc1c[nH]c2ccc(OCCCN(Cc3ccc(C(F)(F)F)cc3C(F)(F)F)c3nc4ccccc4o3)cc12 has what EC50?
< 1 µM

What EC50 value was documented for this compound, O=C(O)c1nc2ccccc2nc1OCCCN(Cc1ccc(C(F)(F)F)cc1C(F)(F)F)c1ccccn1 ?
> 100 µM

Any idea what its EC50 is? The compound is O=C(O)Cc1c[nH]c2ccc(OCCCN(Cc3ccc(C(F)(F)F)cc3C(F)(F)F)c3nc4ccccc4s3)cc12
> 100 µM

Need EC50, item CCCCN(CCCOc1cncc(C(=O)O)c1)c1nc2ccccc2o1
> 100 µM

---

Molecular target: hPPAR γ (Homo sapiens, UniProt P37231)
Sequence (P37231 238-503 limits assumed): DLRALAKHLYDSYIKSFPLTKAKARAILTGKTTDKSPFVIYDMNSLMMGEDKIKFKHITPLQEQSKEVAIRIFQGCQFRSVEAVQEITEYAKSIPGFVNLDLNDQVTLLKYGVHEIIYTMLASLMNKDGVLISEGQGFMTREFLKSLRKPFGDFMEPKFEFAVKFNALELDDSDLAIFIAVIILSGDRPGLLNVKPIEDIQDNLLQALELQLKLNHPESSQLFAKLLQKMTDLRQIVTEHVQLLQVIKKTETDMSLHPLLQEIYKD
Assay: cell-based human PPAR-GAL4 chimera luciferase reporter assay in CV-1 cells
Conditions: PPAR LBD-GAL4 chimera, 24 hours treatment
pEC50: −log10 of the molar value.
measurementType: pEC50

Identify the measured pEC50 of CCCCN(CCCOc1cncc(C(=O)O)c1)c1ccccn1 for hPPAR γ (Homo sapiens, UniProt P37231).
4.00 to 6.00

Param readout = pEC50; param system = hPPAR γ (Homo sapiens, UniProt P37231); param query = O=C(O)c1cncc(OCCCN(Cc2ccc(C(F)(F)F)cc2C(F)(F)F)c2nc3ccccc3o2)c1 ; response: value
4.00 to 6.00

Lab note: need pEC50 with hPPAR γ (Homo sapiens, UniProt P37231) for entry CCc1cnc(N(CCCOc2ccc3c(c2)c(CC(=O)O)cn3C)Cc2ccc(C(F)(F)F)cc2C(F)(F)F)nc1 , please look it up.
> 6.00

Lab note: need pEC50 for O=C(O)c1cncc(OCCCN(Cc2ccc(C(F)(F)F)cc2C(F)(F)F)c2nc3ccccc3s2)c1 on hPPAR γ (Homo sapiens, UniProt P37231), anyone have it?
4.00 to 6.00

What measured pEC50 is associated with O=C(O)c1cncc(OCCCN(Cc2ccc(C(F)(F)F)cc2C(F)(F)F)c2ccccn2)c1 on hPPAR γ (Homo sapiens, UniProt P37231)?
> 6.00

Value wanted: pEC50 (hPPAR γ (Homo sapiens, UniProt P37231)) of entry O=C(O)c1nc2ccccc2nc1OCCCN(Cc1ccc(C(F)(F)F)cc1C(F)(F)F)c1ccccn1
> 6.00

Identify the measured pEC50 of O=C(O)c1cccc(OCCCN(Cc2ccc(C(F)(F)F)cc2C(F)(F)F)c2nc3ccccc3s2)n1 for hPPAR γ (Homo sapiens, UniProt P37231).
> 6.00

Tell me reported pEC50 for CCCCN(CCCOc1ccc2[nH]cc(CC(=O)O)c2c1)c1nc2ccccc2o1 , tested with hPPAR γ (Homo sapiens, UniProt P37231).
4.00 to 6.00

Could you share what pEC50 was measured for CCc1cnc(N(CCCOc2cccc(C(=O)O)n2)Cc2ccc(C(F)(F)F)cc2C(F)(F)F)nc1 , tested on hPPAR γ (Homo sapiens, UniProt P37231)?
> 6.00

Field: pEC50 (hPPAR γ (Homo sapiens, UniProt P37231)). Entry: CCCCN(CCCOc1cccc(C(=O)O)n1)c1ncc(CC)cn1
> 6.00

Return pEC50 measured with hPPAR γ (Homo sapiens, UniProt P37231) given this molecule: CCCCN(CCCOc1cncc(C(=O)O)c1)c1nc2ccccc2s1
> 6.00

What reported pEC50 corresponds to CCc1cnc(N(CCCOc2cccc3ccc(C(=O)O)nc23)Cc2ccc(C(F)(F)F)cc2C(F)(F)F)nc1 on hPPAR γ (Homo sapiens, UniProt P37231)?
4.00 to 6.00

So what pEC50 did CCCCN(CCCOc1cncc(C(=O)O)c1)c1ncc(CC)cn1 get with hPPAR γ (Homo sapiens, UniProt P37231)?
> 6.00

Fill in the recorded pEC50 for this molecule, with hPPAR γ (Homo sapiens, UniProt P37231) as test system: O=C(O)Cc1c[nH]c2ccc(OCCCN(Cc3ccc(C(F)(F)F)cc3C(F)(F)F)c3nc4ccccc4o3)cc12
> 6.00

API: value(readout= pEC50, system= hPPAR γ (Homo sapiens, UniProt P37231), query= O=C(O)Cc1c[nH]c2ccc(OCCCN(Cc3ccc(C(F)(F)F)cc3C(F)(F)F)c3nc4ccccc4s3)cc12 )
> 6.00

Form: Entry = CCc1cnc(N(CCCOc2ccc3[nH]cc(CC(=O)O)c3c2)Cc2ccc(C(F)(F)F)cc2C(F)(F)F)nc1 | System = hPPAR γ (Homo sapiens, UniProt P37231) | pEC50 = ____
> 6.00

Provide the documented pEC50 with hPPAR γ (Homo sapiens, UniProt P37231) as the system for CCCCN(CCCOc1ccc2[nH]cc(CC(=O)O)c2c1)c1nc2ccccc2s1
4.00 to 6.00

Param readout= pEC50; system= hPPAR γ (Homo sapiens, UniProt P37231); entry= CCCCN(CCCOc1nc2ccccc2nc1C(=O)O)c1ccccn1 ; returns value.
4.00 to 6.00

State its pEC50 on hPPAR γ (Homo sapiens, UniProt P37231): CCCCN(CCCOc1nc2ccccc2nc1C(=O)O)c1nc2ccccc2s1
4.00 to 6.00

---

Target: hPPAR γ (Homo sapiens)
Assay: cell-based human PPAR-GAL4 chimera luciferase reporter assay in CV-1 cells
Settings: PPAR LBD-GAL4 chimera, 24 hours treatment
pEC50: −log10 of the molar value.
measurementType: pEC50

Look up pEC50: CCCCN(CCCOc1cccc(C(=O)O)n1)c1nc2ccccc2o1
> 6.00

Look up pEC50 for this compound: O=C(O)Cc1c[nH]c2ccc(OCCCN(Cc3ccc(C(F)(F)F)cc3C(F)(F)F)c3ccccn3)cc12
> 6.00

# query: pEC50 of entry CCc1cnc(N(CCCOc2ncc(C(=O)O)cc2Cl)Cc2ccc(C(F)(F)F)cc2C(F)(F)F)nc1
> 6.00

So what's the measured pEC50 for this one? O=C(O)c1cncc(OCCCN(Cc2ccc(C(F)(F)F)cc2)c2nc3ccccc3s2)c1
> 6.00

Can you look up the measured pEC50 of CCCCN(CCCOc1cncc(C(=O)O)c1)c1nc2ccccc2o1 for me?
4.00 to 6.00
